Please go through the items and note down their Retention_time.
assay: Retention time of the compound by gradient elution based HPLC method; type: physicochemical
Numbers only, in min.

Some compounds with recorded Retention_time:
CCCCCCCCCCCCCC[n+]1cccc2cc(O)ccc21.[Br-] = 10.05
CCCCCCCCCCCCCCCC[n+]1cccc2cc(O)ccc21.[Br-] = 10.77
CCCCCCCCCCCCCCCCCC[n+]1cccc2cc(O)ccc21.[Br-] = 11.47
CCCCCCCCCCCC[n+]1cccc2cc(O)ccc21.[Br-] = 9.34

Here's the next entry for you.
input: Tell me the measured Retention_time of CCCCCCCCCC[n+]1cccc2cc(O)ccc21.[Br-] , please.
output: 8.64

* * *

Please go through the items and note down their MIC.
test system: Trichophyton mentagrophytes; test: microbe, parasite or virus in culture; type: functional; conditions: Trichophyton mentagrophytes, 445, 72 h
Description: Antifungal activity against Trichophyton mentagrophytes 445 after 72 hrs by modified standard CSLI M27-A2 method
One number for each entry, in µM.

Some compounds with recorded MIC:
CCCCCCCCCCCC[n+]1ccccc1 = 1.95
CCCCCCCCCCCCCCCC[n+]1cccc2cc(O)ccc21.[Br-] = 3.91
CCCCCCCCCCCCCC[n+]1ccccc1 = 15.6
CCCCCCCCCCCC[N+](C)(C)Cc1ccccc1 = 0.98
CCCCCCCCCCCC[n+]1cccc2cc(O)ccc21.[Br-] = 0.49
CCCCCCCCCCCCCCCC[N+](C)(C)Cc1ccccc1 = 7.81
CCCCCCCCCCCCCC[N+](C)(C)Cc1ccccc1 = 15.6

Here's the next entry for you.
input: Form field: MIC recorded for CCCCCCCCCCCCCC[n+]1cccc2cc(O)ccc21.[Br-] with Trichophyton mentagrophytes (enter value)
output: 7.81

* * *

test system: Candida tropicalis; test: microbe, parasite or virus in culture; type: functional; settings: Candida tropicalis, 156, 48 h
Description: Antifungal activity against Candida tropicalis 156 after 48 hrs by modified standard CSLI M27-A2 method
Rule: MIC below 2 µM gives criterion met. Equal to or above 2 µM gives criterion not met.

Example cases with answers are listed next.
CCCCCCCCCCCC[N+](C)(C)Cc1ccccc1 = criterion met
CCCCCCCCCCCC[n+]1cccc2cc(O)ccc21.[Br-] = criterion met
CCCCCCCCCCCCCC[n+]1cccc2cc(O)ccc21.[Br-] = criterion not met

input: Lab log: compare recorded MIC with 2 µM; is it strictly lower for CCCCCCCCCCCCCC[N+](C)(C)Cc1ccccc1 ?
output: criterion not met

input: Lab log: compare recorded MIC with 2 µM; is it strictly lower for CCCCCCCCCCCCCCCC[N+](C)(C)Cc1ccccc1 ?
output: criterion not met

input: Lab log: compare recorded MIC with 2 µM; is it strictly lower for CCCCCCCCCCCCCCCC[n+]1cccc2cc(O)ccc21.[Br-] ?
output: criterion not met

* * *

test system: Aspergillus fumigatus; experiment: microbe, parasite or virus in culture; type: functional; conditions: Aspergillus fumigatus, 231, 48 h
Description: Antifungal activity against Aspergillus fumigatus 231 after 48 hrs by modified standard CSLI M27-A2 method
experimental readout: MIC (µM)
Answers are plain numbers, in µM.

Some molecules with recorded MIC:
CCCCCCCCCCCCCCCC[n+]1cccc2cc(O)ccc21.[Br-] = 15.6
CCCCCCCCCCCCCCCC[N+](C)(C)Cc1ccccc1 = 7.81
CCCCCCCCCCCC[n+]1cccc2cc(O)ccc21.[Br-] = 7.81
CCCCCCCCCCCCCC[N+](C)(C)Cc1ccccc1 = 15.6
CCCCCCCCCCCCCC[n+]1ccccc1 = 31.2
CCCCCCCCCCCC[N+](C)(C)Cc1ccccc1 = 3.91
CCCCCCCCCCCC[n+]1ccccc1 = 31.2

input: Tell me the measured MIC of CCCCCCCCCCCCCC[n+]1cccc2cc(O)ccc21.[Br-] , please.
output: 31.2
